Biological target: PTHR1 (Homo sapiens)
Sequence (Q03431 27-593): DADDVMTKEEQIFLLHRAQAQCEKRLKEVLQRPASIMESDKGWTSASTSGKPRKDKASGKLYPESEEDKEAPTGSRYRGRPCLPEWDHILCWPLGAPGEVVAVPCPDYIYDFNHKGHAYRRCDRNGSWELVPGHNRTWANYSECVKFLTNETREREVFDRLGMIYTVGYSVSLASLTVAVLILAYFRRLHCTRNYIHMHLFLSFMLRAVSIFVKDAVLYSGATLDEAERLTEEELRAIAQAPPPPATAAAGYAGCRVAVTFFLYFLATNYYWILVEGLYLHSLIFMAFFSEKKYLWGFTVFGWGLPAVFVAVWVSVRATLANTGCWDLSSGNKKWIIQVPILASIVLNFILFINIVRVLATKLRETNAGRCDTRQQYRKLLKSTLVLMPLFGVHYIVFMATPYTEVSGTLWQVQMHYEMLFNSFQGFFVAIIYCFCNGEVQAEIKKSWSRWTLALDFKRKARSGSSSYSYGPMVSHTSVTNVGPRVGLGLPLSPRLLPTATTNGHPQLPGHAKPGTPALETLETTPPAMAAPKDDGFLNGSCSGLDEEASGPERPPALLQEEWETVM
Test: cAMP accumulation assay (HTRF) in CHO-K1/Ga15/PTHR1 cells
Type: cell-based
Parameters: host or cells: CHO-K1 (recombinant line CHO-K1/Ga15/PTHR1)
Details: cAMP accumulation, fitted curve slope; replicate plates
Method: Cell suspension (5 μL) was seeded in 384-well plates at a density of 3,000 cells/well. Cells were treated with test samples (5 μL) or agonist (PTH 1-34) for 30 minutes at room temperature. cAMP-d2 working solution (5 μL) and anti-cAMP-Cryptate working solution (5 μL) were added to cells and incubated for 60 minutes at room temperature. The signal of the assay plate was read with PheraStar (BMG LABTECH, NC), an HTRF compatible reader.
Where no end group is shown, it is not given here.
// map −log10Slope onto a label; ranges lower = under -8, middle = from -8 up to -2, upper = -2 and over

Solved cases (6 shown):
GIAVFTIMHLRIYLRAEYELREMLLRLLEEIF [Peptide R2-17] :: middle
AVAEIQLMHQRAKWIQDARRRAFLHKLIAEIH [LA-PM-FL, reference compound] :: middle
GVSMLQIMHDLAVIRAEYELREMLLRLLEEIF [Peptide R2-4] :: lower
GLAALTIGLLRAKLRAEYELREMLLRLLEEIF [Peptide R2-24] :: upper
AVAEIQLMHQRAKWSLREELEKLLKELLKEYI [Peptide R2-44] :: upper
GVVMLQFMHDVAKIRAEYELREMLLRLLEEIF [Peptide R2-9] :: upper

## Task Please classify: GVAELQLMHDLAKIRAEYELREMLLRLLEEIF [Peptide R2-1]
## Result middle

## Task Please classify: AVAEIQLMHQRAKWKLELELKAFLDQILKDVL [Peptide R2-36]
## Result upper

## Task Please classify: AVAEIQLMHQRAKWGLEIELLKLLLSLLKEYI [Peptide R2-45]
## Result upper

## Task Please classify: GIAVITLMDLRAYLRAEYELREMLLRLLEEIF [Peptide R2-13]
## Result middle

## Task Please classify: AVAEIQLMHQRAKWELQEIGIAITLRLLARYI [Peptide R2-43]
## Result upper

## Task Please classify: AVAEIQLMHQRAKWGVELQLKVDLRRILEDVY [Peptide R2-35]
## Result lower

## Task Please classify: GVALLQIVHDFAKIRAEYELREMLLRLLEEIF [Peptide R2-5]
## Result middle
